# assay target: hERG K+ channel (Homo sapiens)
# Construct: expressed in transfected cells; host or cells: CHO (Chinese hamster ovary)
# Sequence (Q12809 whole entry): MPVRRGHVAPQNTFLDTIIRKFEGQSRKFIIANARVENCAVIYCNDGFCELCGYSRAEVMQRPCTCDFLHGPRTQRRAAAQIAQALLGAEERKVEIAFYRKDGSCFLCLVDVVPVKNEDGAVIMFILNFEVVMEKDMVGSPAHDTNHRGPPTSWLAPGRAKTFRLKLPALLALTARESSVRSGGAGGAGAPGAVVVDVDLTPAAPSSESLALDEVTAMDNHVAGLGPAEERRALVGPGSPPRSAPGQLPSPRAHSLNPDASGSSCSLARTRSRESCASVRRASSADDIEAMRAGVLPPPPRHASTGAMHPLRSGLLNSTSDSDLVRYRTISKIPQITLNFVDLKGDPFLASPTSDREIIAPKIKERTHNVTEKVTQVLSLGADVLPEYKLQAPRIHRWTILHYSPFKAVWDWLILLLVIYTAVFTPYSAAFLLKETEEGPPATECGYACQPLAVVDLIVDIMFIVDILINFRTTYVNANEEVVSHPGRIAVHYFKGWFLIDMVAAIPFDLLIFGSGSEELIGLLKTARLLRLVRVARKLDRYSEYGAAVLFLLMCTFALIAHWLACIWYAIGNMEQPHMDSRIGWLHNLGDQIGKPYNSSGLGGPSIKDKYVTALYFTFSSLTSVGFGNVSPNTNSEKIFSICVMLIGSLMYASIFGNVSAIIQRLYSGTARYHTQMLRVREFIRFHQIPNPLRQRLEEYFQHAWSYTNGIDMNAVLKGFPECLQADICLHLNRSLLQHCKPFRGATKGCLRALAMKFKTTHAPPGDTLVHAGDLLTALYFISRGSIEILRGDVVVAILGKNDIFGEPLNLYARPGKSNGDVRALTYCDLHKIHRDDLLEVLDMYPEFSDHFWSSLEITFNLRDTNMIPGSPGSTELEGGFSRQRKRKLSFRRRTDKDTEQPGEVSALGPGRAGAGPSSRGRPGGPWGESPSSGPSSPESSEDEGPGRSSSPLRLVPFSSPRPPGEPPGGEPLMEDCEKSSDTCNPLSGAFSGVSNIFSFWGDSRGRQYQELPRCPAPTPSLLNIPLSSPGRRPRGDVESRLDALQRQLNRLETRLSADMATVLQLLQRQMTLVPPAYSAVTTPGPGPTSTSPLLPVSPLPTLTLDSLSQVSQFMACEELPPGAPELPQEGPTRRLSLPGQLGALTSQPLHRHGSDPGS
# test protocol: hERG channel inhibition assay (patch-clamp, CHO-hERG cells)
# Format: cell-based
# assay context: safety ratio
Recorded hERG IC20/TLR8 IC50 values for a group of compounds are listed next.

>>> result("Cc1cc(N2CCC(c3ncc(N4CCNCC4)cc3C)[C@H](C)C2)c2cnn(C)c2n1 (single isomer, unassigned) [Example 25]")
">1428.6"
>>> result("Cc1cc(N2CC[C@H](c3ccc(N4CC(C)(N)C4)cn3)[C@@H](C)C2)c2cnn(C)c2n1 [Example 43]")
">1666.7"

// below: hERG IC20/TLR8 IC50 requested for another compound
[in] // output hERG IC20/TLR8 IC50; input Cc1cc(N2CCC(c3ccc(N4CCNCC4)cn3)CC2)c2cnn(C)c2n1 [Example 2] ; system hERG K+ channel (Homo sapiens)
[out] >476.2
